assay_protocol: activity coefficient (dimensionless); of the first substance listed, at infinite dilution; xn = mol fraction of the nth substance listed
experimental_context: 348.15 K; 101 kPa; Liquid; Chromatography; x1 = 0
measure_name: activity coefficient
Numbers only.

Example results:
compound: CCCCCC [hexane] + CCCCC[N+]1(C)CCCCC1.O=S(=O)([N-]S(=O)(=O)C(F)(F)F)C(F)(F)F
activity coefficient: 8.19
--
compound: C1CCCC1 [cyclopentane] + CCCCC[N+]1(C)CCCCC1.O=S(=O)([N-]S(=O)(=O)C(F)(F)F)C(F)(F)F
activity coefficient: 3.82
--
compound: CCCC(C)=O [pentan-2-one] + CCCCC[N+]1(C)CCCCC1.O=S(=O)([N-]S(=O)(=O)C(F)(F)F)C(F)(F)F
activity coefficient: 0.666

List activity coefficient for every entry below, keeping the order given.
1. CCC(C)(C)OC [2-methoxy-2-methylbutane] + CCCCC[N+]1(C)CCCCC1.O=S(=O)([N-]S(=O)(=O)C(F)(F)F)C(F)(F)F
2. CCCCC(C)=O [2-hexanone] + CCCCCC[N+]1(C)CCCCC1.O=S(=O)([N-]S(=O)(=O)C(F)(F)F)C(F)(F)F
3. CCCC(C)=O [pentan-2-one] + CCCCCC[N+]1(C)CCCCC1.O=S(=O)([N-]S(=O)(=O)C(F)(F)F)C(F)(F)F

Reply:
1: 2.57; 2: 0.764; 3: 0.632

====

I'd appreciate it if you could supply activity coefficient values for the items below.
assay_protocol: activity coefficient (dimensionless); of the first substance listed, at infinite dilution; xn = mol fraction of the nth substance listed
experimental_context: 318.15 K; 101 kPa; Liquid; Chromatography; x1 = 0
Answers are plain numbers.

List activity coefficient for every entry below, keeping the order given.
1. CCCCCO [pentan-1-ol] + CCCCC[N+]1(C)CCCCC1.O=S(=O)([N-]S(=O)(=O)C(F)(F)F)C(F)(F)F
2. CCCCCCC [heptane] + CCCCCC[N+]1(C)CCCCC1.O=S(=O)([N-]S(=O)(=O)C(F)(F)F)C(F)(F)F
3. C1CCCCCC1 [cycloheptane] + CCCCCC[N+]1(C)CCCCC1.O=S(=O)([N-]S(=O)(=O)C(F)(F)F)C(F)(F)F

Reply:
[2.37, 9.81, 6.01]

List activity coefficient for every entry below, keeping the order given.
1. CCCCC(C)=O [2-hexanone] + CCCCC[N+]1(C)CCCCC1.O=S(=O)([N-]S(=O)(=O)C(F)(F)F)C(F)(F)F
2. CCC(C)(C)C [2,2-dimethylbutane] + CCCCCC[N+]1(C)CCCCC1.O=S(=O)([N-]S(=O)(=O)C(F)(F)F)C(F)(F)F
3. O [water] + CCCCCC[N+]1(C)CCCCC1.O=S(=O)([N-]S(=O)(=O)C(F)(F)F)C(F)(F)F
4. COC(C)(C)C [2-methoxy-2-methylpropane] + CCCCCC[N+]1(C)CCCCC1.O=S(=O)([N-]S(=O)(=O)C(F)(F)F)C(F)(F)F
5. CCCCCCCC [octane] + CCCCC[N+]1(C)CCCCC1.O=S(=O)([N-]S(=O)(=O)C(F)(F)F)C(F)(F)F
6. C1=CCCCC1 [cyclohexene] + CCCCC[N+]1(C)CCCCC1.O=S(=O)([N-]S(=O)(=O)C(F)(F)F)C(F)(F)F
7. CCCCCCCCC [nonane] + CCCCCC[N+]1(C)CCCCC1.O=S(=O)([N-]S(=O)(=O)C(F)(F)F)C(F)(F)F
8. c1ccsc1 [thiophene] + CCCCCC[N+]1(C)CCCCC1.O=S(=O)([N-]S(=O)(=O)C(F)(F)F)C(F)(F)F

Reply:
[0.761, 6.44, 4.46, 1.63, 16.9, 3.63, 16.4, 0.627]

List activity coefficient for every entry below, keeping the order given.
1. C#CCCCCC [1-heptyne] + CCCCC[N+]1(C)CCCCC1.O=S(=O)([N-]S(=O)(=O)C(F)(F)F)C(F)(F)F
2. Cc1cccc(C)c1 [1,3-dimethylbenzene] + CCCCC[N+]1(C)CCCCC1.O=S(=O)([N-]S(=O)(=O)C(F)(F)F)C(F)(F)F

Reply:
2.81
1.24

====

assay_protocol: activity coefficient (dimensionless); of the first substance listed, at infinite dilution; xn = mol fraction of the nth substance listed
experimental_context: 358.15 K; 101 kPa; Liquid; Chromatography; x1 = 0
I'd appreciate it if you could supply activity coefficient values for the items below.
One number for each entry.

List activity coefficient for every entry below, keeping the order given.
1. C#CCCCC [1-hexyne] + CCCCCC[N+]1(C)CCCCC1.O=S(=O)([N-]S(=O)(=O)C(F)(F)F)C(F)(F)F
2. CCCC(C)=O [pentan-2-one] + CCCCC[N+]1(C)CCCCC1.O=S(=O)([N-]S(=O)(=O)C(F)(F)F)C(F)(F)F
3. C#CCCCCC [1-heptyne] + CCCCCC[N+]1(C)CCCCC1.O=S(=O)([N-]S(=O)(=O)C(F)(F)F)C(F)(F)F
4. CCC(C)(C)C [2,2-dimethylbutane] + CCCCCC[N+]1(C)CCCCC1.O=S(=O)([N-]S(=O)(=O)C(F)(F)F)C(F)(F)F
5. Cc1cccc(C)c1 [1,3-dimethylbenzene] + CCCCC[N+]1(C)CCCCC1.O=S(=O)([N-]S(=O)(=O)C(F)(F)F)C(F)(F)F
6. C#CCCC [1-pentyne] + CCCCC[N+]1(C)CCCCC1.O=S(=O)([N-]S(=O)(=O)C(F)(F)F)C(F)(F)F
7. C1CCCCCCC1 [cyclooctane] + CCCCC[N+]1(C)CCCCC1.O=S(=O)([N-]S(=O)(=O)C(F)(F)F)C(F)(F)F
8. CCO [ethanol] + CCCCCC[N+]1(C)CCCCC1.O=S(=O)([N-]S(=O)(=O)C(F)(F)F)C(F)(F)F

Reply:
[1.98, 0.682, 2.55, 5.65, 1.39, 1.73, 7.8, 1.18]

List activity coefficient for every entry below, keeping the order given.
1. CCCC(C)=O [pentan-2-one] + CCCCCC[N+]1(C)CCCCC1.O=S(=O)([N-]S(=O)(=O)C(F)(F)F)C(F)(F)F
2. C=CCCCCCC [oct-1-ene] + CCCCCC[N+]1(C)CCCCC1.O=S(=O)([N-]S(=O)(=O)C(F)(F)F)C(F)(F)F
3. CCCCCC [hexane] + CCCCC[N+]1(C)CCCCC1.O=S(=O)([N-]S(=O)(=O)C(F)(F)F)C(F)(F)F

Reply:
1. 0.646
2. 7.2
3. 7.92

Task item: State the recorded activity coefficient for this entry: CCCCCCCCCC [decane] + CCCCCC[N+]1(C)CCCCC1.O=S(=O)([N-]S(=O)(=O)C(F)(F)F)C(F)(F)F
Reply: 18.3

====

assay_protocol: activity coefficient (dimensionless); of the first substance listed, at infinite dilution; xn = mol fraction of the nth substance listed
experimental_context: 338.15 K; 101 kPa; Liquid; Chromatography; x1 = 0
I'd appreciate it if you could supply activity coefficient values for the items below.
Answers are plain numbers.

Example results:
compound: CCCCCCCCCC [decane] + CCCCC[N+]1(C)CCCCC1.O=S(=O)([N-]S(=O)(=O)C(F)(F)F)C(F)(F)F
measure_name: activity coefficient
result: 26.2
--
compound: C=CCCCCCC [oct-1-ene] + CCCCC[N+]1(C)CCCCC1.O=S(=O)([N-]S(=O)(=O)C(F)(F)F)C(F)(F)F
measure_name: activity coefficient
result: 8.94
--
compound: C1CCCCC1 [cyclohexane] + CCCCCC[N+]1(C)CCCCC1.O=S(=O)([N-]S(=O)(=O)C(F)(F)F)C(F)(F)F
measure_name: activity coefficient
result: 4.43
--
compound: Cc1ccccc1C [1,2-dimethylbenzene] + CCCCCC[N+]1(C)CCCCC1.O=S(=O)([N-]S(=O)(=O)C(F)(F)F)C(F)(F)F
measure_name: activity coefficient
result: 1.13
--
compound: C#CCCCC [1-hexyne] + CCCCCC[N+]1(C)CCCCC1.O=S(=O)([N-]S(=O)(=O)C(F)(F)F)C(F)(F)F
measure_name: activity coefficient
result: 1.93

List activity coefficient for every entry below, keeping the order given.
1. C1CCCC1 [cyclopentane] + CCCCCC[N+]1(C)CCCCC1.O=S(=O)([N-]S(=O)(=O)C(F)(F)F)C(F)(F)F
2. C=CCCCCC [1-heptene] + CCCCC[N+]1(C)CCCCC1.O=S(=O)([N-]S(=O)(=O)C(F)(F)F)C(F)(F)F
3. C#CCCCCC [1-heptyne] + CCCCCC[N+]1(C)CCCCC1.O=S(=O)([N-]S(=O)(=O)C(F)(F)F)C(F)(F)F
4. Cc1ccc(C)cc1 [1,4-dimethylbenzene] + CCCCCC[N+]1(C)CCCCC1.O=S(=O)([N-]S(=O)(=O)C(F)(F)F)C(F)(F)F

Reply:
1. 3.34
2. 6.67
3. 2.49
4. 1.24
